TARGET OR SYSTEM: T1, Ala mutant of TA0096, SEQ ID NO: 30
T1 peptide: EENADDQWMQDEMEIGY
PROCEDURE TEXT: ELISA, coated peptide
METRIC: OD 490/630 nm
Write the value as a bare number.

Take a look at these entries with their results.
BINDER: G8 (antibody, V domains shown, Chicken variable regions in a mouse chimeric antibody (IgG1); also called anti-PAD4 antibody G8) VH: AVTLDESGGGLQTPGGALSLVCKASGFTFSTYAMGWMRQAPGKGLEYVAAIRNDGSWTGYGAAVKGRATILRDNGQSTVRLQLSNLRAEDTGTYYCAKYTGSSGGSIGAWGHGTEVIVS VL: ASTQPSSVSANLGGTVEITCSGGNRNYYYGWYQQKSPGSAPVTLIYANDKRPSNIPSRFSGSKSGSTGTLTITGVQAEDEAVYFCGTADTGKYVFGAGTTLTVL
METRIC: OD 490/630 nm
MEASURED NUMBER: 1.93
--
BINDER: H7 (antibody, V domains shown, Chicken variable regions in a mouse chimeric antibody (IgG1); also called anti-PAD4 antibody H7) VH: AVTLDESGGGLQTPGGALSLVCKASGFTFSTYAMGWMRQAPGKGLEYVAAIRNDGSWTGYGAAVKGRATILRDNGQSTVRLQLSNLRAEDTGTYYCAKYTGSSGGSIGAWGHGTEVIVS VL: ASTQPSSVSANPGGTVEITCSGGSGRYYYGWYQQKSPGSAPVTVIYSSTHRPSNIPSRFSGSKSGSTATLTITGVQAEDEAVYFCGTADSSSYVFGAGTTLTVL
METRIC: OD 490/630 nm
MEASURED NUMBER: 1.95
--
BINDER: E9 (antibody, V domains shown, Chicken variable regions in a mouse chimeric antibody (IgG1); also called anti-PAD4 antibody E9) VH: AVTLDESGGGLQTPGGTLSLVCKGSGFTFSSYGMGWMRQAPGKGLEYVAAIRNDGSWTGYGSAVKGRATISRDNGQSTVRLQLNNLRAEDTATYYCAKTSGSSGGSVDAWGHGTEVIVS VL: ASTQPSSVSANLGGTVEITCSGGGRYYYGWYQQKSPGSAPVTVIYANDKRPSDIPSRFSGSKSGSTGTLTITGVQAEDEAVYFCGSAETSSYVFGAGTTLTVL
METRIC: OD 490/630 nm
MEASURED NUMBER: 1.91
--
BINDER: A11 (antibody, V domains shown, Chicken variable regions in a mouse chimeric antibody (IgG1); also called anti-PAD4 antibody A11) VH: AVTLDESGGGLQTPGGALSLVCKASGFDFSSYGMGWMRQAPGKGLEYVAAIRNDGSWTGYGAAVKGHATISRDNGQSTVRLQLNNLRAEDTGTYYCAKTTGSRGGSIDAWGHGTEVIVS VL: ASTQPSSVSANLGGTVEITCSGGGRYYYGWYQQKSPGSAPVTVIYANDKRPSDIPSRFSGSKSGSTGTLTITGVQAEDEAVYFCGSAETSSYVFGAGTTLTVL
METRIC: OD 490/630 nm
MEASURED NUMBER: 2.03
--
BINDER: G9 (antibody, V domains shown, Chicken variable regions in a mouse chimeric antibody (IgG1); also called anti-PAD4 antibody G9) VH: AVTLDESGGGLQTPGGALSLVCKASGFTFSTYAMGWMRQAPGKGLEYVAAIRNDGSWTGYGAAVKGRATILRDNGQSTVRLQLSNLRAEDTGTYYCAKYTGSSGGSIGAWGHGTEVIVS VL: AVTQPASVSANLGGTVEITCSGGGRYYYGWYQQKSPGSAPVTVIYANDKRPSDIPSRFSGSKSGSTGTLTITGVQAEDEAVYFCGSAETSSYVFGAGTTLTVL
METRIC: OD 490/630 nm
MEASURED NUMBER: 2.03

Please find the next binder below.
Problem: Fill in: OD 490/630 nm of G6 (antibody, V domains shown, Chicken variable regions in a mouse chimeric antibody (IgG1); also called anti-PAD4 antibody G6) VH: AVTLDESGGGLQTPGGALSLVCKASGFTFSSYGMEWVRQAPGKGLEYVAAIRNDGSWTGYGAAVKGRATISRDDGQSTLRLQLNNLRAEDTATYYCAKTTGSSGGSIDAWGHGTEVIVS VL: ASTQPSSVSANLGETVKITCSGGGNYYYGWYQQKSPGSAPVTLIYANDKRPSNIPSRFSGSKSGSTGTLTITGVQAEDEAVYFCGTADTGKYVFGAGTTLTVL is ___
Result: 1.92
